Target chain: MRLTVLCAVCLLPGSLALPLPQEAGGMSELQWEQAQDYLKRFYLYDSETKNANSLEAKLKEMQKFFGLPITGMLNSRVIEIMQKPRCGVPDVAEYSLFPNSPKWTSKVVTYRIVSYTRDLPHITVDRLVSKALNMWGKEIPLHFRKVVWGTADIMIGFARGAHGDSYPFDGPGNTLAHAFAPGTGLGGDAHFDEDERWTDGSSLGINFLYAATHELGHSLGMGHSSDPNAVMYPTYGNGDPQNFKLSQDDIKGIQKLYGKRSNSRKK
MEASURE: IC50

I am curious: what IC50 value has been reported for COc1ccc(C(=O)N2CCN(c3ccc(S(=O)(=O)C4(C(=O)NO)CCOCC4)cc3)CC2)cc1 ? > 10 µM

====

Task for the reader: assign each of the following compounds its reported Ki.
Target sequence: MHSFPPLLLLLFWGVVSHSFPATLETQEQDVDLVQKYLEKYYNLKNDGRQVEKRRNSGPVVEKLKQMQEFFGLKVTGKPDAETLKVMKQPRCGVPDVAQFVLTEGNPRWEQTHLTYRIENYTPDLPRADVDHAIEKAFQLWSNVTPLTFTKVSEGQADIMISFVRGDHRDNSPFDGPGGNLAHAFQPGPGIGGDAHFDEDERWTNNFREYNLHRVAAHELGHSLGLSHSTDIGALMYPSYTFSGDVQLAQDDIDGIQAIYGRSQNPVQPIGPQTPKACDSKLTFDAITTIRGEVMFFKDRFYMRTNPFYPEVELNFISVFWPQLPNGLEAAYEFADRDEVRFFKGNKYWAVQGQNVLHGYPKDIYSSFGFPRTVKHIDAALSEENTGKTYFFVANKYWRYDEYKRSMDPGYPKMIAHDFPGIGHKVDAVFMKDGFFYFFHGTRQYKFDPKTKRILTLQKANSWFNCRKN

I am curious: what Ki value has been reported for COCCN1CCC(C(=O)NO)(S(=O)(=O)c2ccc(OCCCn3nnc(-c4ccc(OC(F)(F)F)cc4)n3)cc2)CC1 ? > 10 µM

// repeat for COc1ccc(C(=O)N2CCN(c3ccc(S(=O)(=O)C4(C(=O)NO)CCOCC4)cc3)CC2)cc1 and report > 10 µM

// repeat for COc1ccc(C(=O)NCCCOc2ccc(S(=O)(=O)C3(C(=O)NO)CCOCC3)cc2)cc1 and report > 10 µM

====

Test: Cmax in rat
Assay type: ADME, organism-based
Details: in vivo
Binned Cmax; ranges: low range = under 1000 ng/mL, mid range = from 1000 ng/mL up to 4000 ng/mL, high range = 4000 ng/mL and over

Categorize the following entry: O=C(NO)C1(S(=O)(=O)c2ccc(OCCCn3nnc(-c4ccc(OC(F)(F)F)cc4)n3)cc2)CCOCC1 low range

// repeat for O=C(NO)C1(S(=O)(=O)c2ccc(OCCCc3nnnn3-c3ccc(OC(F)(F)F)cc3)cc2)CCOCC1 and report mid range

// repeat for COCCN1CCC(C(=O)NO)(S(=O)(=O)c2ccc(Oc3ccc(OC(F)(F)F)cc3)cc2)CC1 and report high range

// repeat for CCN1CCC(C(=O)NO)(S(=O)(=O)c2ccc(OCCCc3nc(-c4ccc(OC(F)(F)F)cc4)no3)cc2)CC1 and report mid range

// repeat for O=C(NO)C1(S(=O)(=O)c2ccc(OCCCc3nc(-c4ccc(OC(F)(F)F)cc4)no3)cc2)CCOCC1 and report low range

// repeat for COc1ccc(C(=O)NCCCOc2ccc(S(=O)(=O)C3(C(=O)NO)CCOCC3)cc2)cc1 and report low range

// repeat for Cc1ccc(-c2nnn(CCCOc3ccc(S(=O)(=O)C4(C(=O)NO)CCOCC4)cc3)n2)nc1 and report mid range

// repeat for COc1ccc(C(=O)N2CCN(c3ccc(S(=O)(=O)C4(C(=O)NO)CCOCC4)cc3)CC2)cc1 and report high range

// repeat for Cc1ccc(-c2nnnn2CCCOc2ccc(S(=O)(=O)C3(C(=O)NO)CCOCC3)cc2)nc1 and report mid range

// repeat for COCCN1CCC(C(=O)NO)(S(=O)(=O)c2ccc(OCCCn3nnc(-c4ccc(OC(F)(F)F)cc4)n3)cc2)CC1 and report mid range
